- Test system: S. pneumoniae Topoisomerase IV ATPase (ParE) (Streptococcus pneumoniae serotype 4, UniProt Q59961)
- Sequence (Q59961 whole entry): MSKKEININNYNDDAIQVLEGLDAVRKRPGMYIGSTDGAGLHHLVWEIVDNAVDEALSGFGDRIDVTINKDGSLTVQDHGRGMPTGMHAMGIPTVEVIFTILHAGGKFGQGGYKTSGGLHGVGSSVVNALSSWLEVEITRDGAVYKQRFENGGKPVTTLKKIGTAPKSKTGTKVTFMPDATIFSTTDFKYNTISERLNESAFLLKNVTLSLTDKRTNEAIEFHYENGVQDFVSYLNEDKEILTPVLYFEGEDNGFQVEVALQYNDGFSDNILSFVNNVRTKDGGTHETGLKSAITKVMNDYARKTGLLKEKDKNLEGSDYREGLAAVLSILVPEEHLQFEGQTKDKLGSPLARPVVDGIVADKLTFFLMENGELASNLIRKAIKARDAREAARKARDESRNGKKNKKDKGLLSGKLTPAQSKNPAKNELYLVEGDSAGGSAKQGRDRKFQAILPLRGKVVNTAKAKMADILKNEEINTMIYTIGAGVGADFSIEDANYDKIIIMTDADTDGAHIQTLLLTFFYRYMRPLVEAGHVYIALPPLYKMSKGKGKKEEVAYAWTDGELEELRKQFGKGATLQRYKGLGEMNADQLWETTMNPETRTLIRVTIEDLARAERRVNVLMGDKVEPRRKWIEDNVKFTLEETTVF
- Method summary: S. pneumoniae Topoisomerase IV ATPase inhibition
- Assay type: biochemical
- Condition: values marked * are an average of two or more data points, read-out: % Inh (13 μM) of S. pneumoniae Topoisomerase IV ATPase
For each entry below, report its inhibition at 13 µM value.
Answer in %, number only, no unit symbol.

May I ask what inhibition at 13 µM has been recorded for CN1CCN(CCNc2nc(Nc3ccc(F)c(Cl)c3)ncc2-c2cccc(/C=C/C(=O)O)c2)CC1 ? 87.7

May I ask what inhibition at 13 µM has been recorded for Cc1cc(C(F)(F)F)nn1-c1nc(Nc2cccc(C#N)c2)ncc1-c1cccc(/C=C/C(=O)O)c1 ? 97

May I ask what inhibition at 13 µM has been recorded for CN(C)CCCNc1nc(Nc2ccc(F)c(Cl)c2)ncc1-c1cccc(C(=O)O)c1 ? 86

May I ask what inhibition at 13 µM has been recorded for Cc1cc(C(F)(F)F)nn1-c1nc(Nc2cccc(S(C)(=O)=O)c2)ncc1-c1cncc(C(=O)O)c1 ? 84

May I ask what inhibition at 13 µM has been recorded for CCOC(=O)c1cn(CCOC)c2ccc(-c3cnc(Nc4ccc(F)c(Cl)c4)nc3N3CCOCC3)cc2c1=O ? 80

May I ask what inhibition at 13 µM has been recorded for CC(=O)Nc1ccn(-c2nc(Nc3ccc(F)c(Cl)c3)ncc2-c2cccc(/C=C/C(=O)O)c2)n1 ? 52

May I ask what inhibition at 13 µM has been recorded for COc1cc(Nc2ncc(-c3cccc(/C=C/C(=O)O)c3)c(-n3nc(C(F)(F)F)cc3C)n2)cc(OC)c1 ? 99

May I ask what inhibition at 13 µM has been recorded for O=C(O)COc1cccc(-c2cnc(Nc3ccc(F)c(Cl)c3)nc2N2CCOCC2)c1 ? 92

May I ask what inhibition at 13 µM has been recorded for O=C(O)/C=C/c1cccc(-c2cnc(Nc3ccc(F)c(Cl)c3)nc2-n2ccc(-c3ccsc3)n2)c1 ? 100

May I ask what inhibition at 13 µM has been recorded for COc1cc(Nc2ncc(-c3cnc(OC)c(C(=O)NS(=O)(=O)c4c(C)noc4C)c3)c(-n3nc(C(F)(F)F)cc3C)n2)cc(OC)c1 ? 94

May I ask what inhibition at 13 µM has been recorded for COc1ncc(-c2cnc(Nc3cc(C)cc(C)c3)nc2-n2nc(C(F)(F)F)cc2C)cc1C(=O)NS(=O)(=O)CCCN1CCOCC1 ? 100

May I ask what inhibition at 13 µM has been recorded for O=C(O)/C=C/c1cccc(-c2cnc(Nc3ccc(F)c(Cl)c3)nc2-n2ccc(C3CC3)n2)c1 ? 98

May I ask what inhibition at 13 µM has been recorded for COc1cc(Cl)c(C)cc1Nc1ncc(-c2cccc(/C=C/C(=O)O)c2)c(NCCCN(C)C)n1 ? 58

May I ask what inhibition at 13 µM has been recorded for COc1cccc(-c2cnc(Nc3ccc(F)c(Cl)c3)nc2NCCCN(C)C)c1 ? 91.7

May I ask what inhibition at 13 µM has been recorded for CCS(=O)(=O)NC(=O)c1cc(-c2cnc(Nc3ccc(F)c(Cl)c3)nc2-n2nc(C(F)(F)F)cc2C)cnc1OC ? 90

====

- Test system: S. pneumoniae Topoisomerase IV ATPase (ParE) (Streptococcus pneumoniae serotype 4, UniProt Q59961)
- Method summary: S. pneumoniae Topoisomerase IV ATPase inhibition
- Format: biochemical
- Condition: values marked * are an average of two or more data points, read-out: % Inh (13 μM) of S. pneumoniae Topoisomerase IV ATPase
For each entry below, report its inhibition at 13 µM value.

May I ask what inhibition at 13 µM has been recorded for CC(=O)Nc1cc(C(=O)O)cc(-c2cnc(Nc3ccc(F)c(Cl)c3)nc2-n2ccc(C(F)(F)F)n2)c1 ? 100%

May I ask what inhibition at 13 µM has been recorded for Cc1cc(C)n(-c2nc(Nc3ccc(F)c(Cl)c3)ncc2-c2cccc(/C=C/C(=O)O)c2)n1 ? 83.7%

May I ask what inhibition at 13 µM has been recorded for COc1ncc(-c2cnc(Nc3ccc(F)c(Cl)c3)nc2NCCc2ccncc2)cn1 ? 100%

May I ask what inhibition at 13 µM has been recorded for COc1ncc(-c2cnc(Nc3cc(C)cc(F)c3)nc2-n2nc(C(F)(F)F)cc2C)cc1C(=O)O ? 100%

May I ask what inhibition at 13 µM has been recorded for COc1cc(Nc2ncc(-c3cncc(C(=O)O)c3)c(N3CCOCC3)n2)cc(-n2nnnc2C)c1 ? 34%

May I ask what inhibition at 13 µM has been recorded for COCCCNc1nc(Nc2ccc(F)c(Cl)c2)ncc1-c1nc(-c2ccccn2)c(C(=O)O)s1 ? 100%

May I ask what inhibition at 13 µM has been recorded for Cc1cc(C(F)F)n(-c2nc(Nc3ccc(F)c(Cl)c3)ncc2-c2cncc(C(=O)O)c2)n1 ? 100%

May I ask what inhibition at 13 µM has been recorded for CONC(=O)/C=C/c1cccc(-c2cnc(Nc3cc(OC)cc(C(F)(F)F)c3)nc2NCCc2ccncc2)c1 ? 81.2%

May I ask what inhibition at 13 µM has been recorded for COc1cc(Nc2ncc(-c3ccc4c(c3)C(=O)NS4(=O)=O)c(-n3ccc(C(F)(F)F)n3)n2)cc(OC)c1 ? 89%

May I ask what inhibition at 13 µM has been recorded for Cn1cncc1CNc1nc(Nc2ccc(F)c(Cl)c2)ncc1-c1cncc(C(=O)O)c1 ? 95.8%

May I ask what inhibition at 13 µM has been recorded for COc1cc(Nc2ncc(-c3cccc(/C=C/C(=O)O)c3)c(-n3ccc(C(F)(F)F)n3)n2)cc(OC)c1 ? 100%

May I ask what inhibition at 13 µM has been recorded for O=C(O)c1cc2cc(-c3cnc(Nc4ccc(F)c(Cl)c4)nc3N3CCOCC3)ccc2[nH]1 ? 100%

May I ask what inhibition at 13 µM has been recorded for COC(=O)c1cc2ccc(-c3cnc(Nc4ccc(F)c(Cl)c4)nc3N3CCOCC3)cc2[nH]1 ? 0%

May I ask what inhibition at 13 µM has been recorded for COc1ncc(-c2cnc(Nc3ccc(F)c(Cl)c3)nc2NCc2cnn(C)c2C)cn1 ? 64%

May I ask what inhibition at 13 µM has been recorded for COc1ncc(-c2cnc(Nc3ccc(F)c(Cl)c3)nc2-n2ccc(C(F)(F)F)n2)cc1/C=C/C(=O)O ? 100%

May I ask what inhibition at 13 µM has been recorded for Cc1cc(C(=O)O)nc(-c2cnc(Nc3ccc(F)c(Cl)c3)nc2-n2ccc(C(F)(F)F)n2)n1 ? 91%

May I ask what inhibition at 13 µM has been recorded for CCC1COC(C)CN1c1nc(Nc2ccc(F)c(Cl)c2)ncc1-c1cncc(C(=O)O)c1 (stereo not drawn) ? 87%

May I ask what inhibition at 13 µM has been recorded for COc1cc(Nc2ncc(-c3cnc(OC)c(-c4nnn[nH]4)c3)c(-n3nc(C(F)(F)F)cc3C)n2)cc(OC)c1 ? 100%

May I ask what inhibition at 13 µM has been recorded for COc1cc(Nc2ncc(-c3cncc(C(=O)O)c3)c(-n3nc(C(F)(F)F)cc3C)n2)cc(S(C)(=O)=O)c1 ? 100%

May I ask what inhibition at 13 µM has been recorded for COc1ncc(-c2cnc(Nc3cc(C)cc(Cl)c3)nc2-n2ccc(C(F)(F)F)n2)cc1C(=O)O ? 100%

May I ask what inhibition at 13 µM has been recorded for Cc1cccc(Nc2ncc(-c3cncc(C(=O)O)c3)c(-n3nc(C(F)(F)F)cc3C)n2)c1 ? 100%

May I ask what inhibition at 13 µM has been recorded for COc1cc(Nc2ncc(-c3cnc(OCCNC(C)=O)c(C(=O)O)c3)c(-n3nc(C(F)(F)F)cc3C)n2)cc(OC)c1 ? 100%

May I ask what inhibition at 13 µM has been recorded for COc1cc(Nc2ncc(-c3cncc(C(=O)NCC(O)CO)c3)c(-n3nc(C(F)(F)F)cc3C)n2)cc(C(F)(F)F)c1 (stereo not drawn) ? 100%

May I ask what inhibition at 13 µM has been recorded for CCOC(=O)c1cncc(-c2cnc(Nc3ccc(F)c(Cl)c3)nc2N2CC(C)OC(C)C2)c1 (stereo not drawn) ? 80.1%

May I ask what inhibition at 13 µM has been recorded for O=C(O)c1cncc(-c2cnc(Nc3ccc(F)c(Cl)c3)nc2N2CCCCCC2)c1 ? 16.8%

May I ask what inhibition at 13 µM has been recorded for COc1cc(Nc2ncc(-c3cnc(OC)c(C(=O)NCCS(C)(=O)=O)c3)c(-n3ccc(C(F)(F)F)n3)n2)cc(OC)c1 ? 100%

May I ask what inhibition at 13 µM has been recorded for COc1cc(Nc2ncc(-c3cnc(OC)c(C(=O)NS(=O)(=O)CCCN4CCOCC4)c3)c(-n3nc(C(F)(F)F)cc3C)n2)cc(OC)c1 ? 100%

May I ask what inhibition at 13 µM has been recorded for CC(=O)Nc1ccn(-c2nc(Nc3ccc(F)c(Cl)c3)ncc2-c2cncc(C(=O)O)c2)n1 ? 49%

May I ask what inhibition at 13 µM has been recorded for O=C(O)c1cc(-c2cnc(Nc3ccc(F)c(Cl)c3)nc2-n2ccc(C(F)(F)F)n2)ccn1 ? 100%

May I ask what inhibition at 13 µM has been recorded for COCCCNc1nc(Nc2ccc(F)c(Cl)c2)ncc1-c1ccc(C(=O)O)s1 ? 83%
